Please respond with reported cytotoxicity at 10 µM for every item in the list.
Test: Toxicity liver stage against HepG2, at 10uM
Format: cell-based
Parameters: test concentration 10 uM, cell line HepG2-A16-CD81EGFP
Details: human, HepG2-A16-CD81EGFP cells; read-out: INHIBITION
Give bare numbers, in %.

Record excerpt, results attached:
Molecule	cytotoxicity at 10 µM (%)
CC(C)c1nnc(CNC2CCCN(Cc3noc(C4CC4)n3)C2)o1 (stereo not drawn)	-5.62
COc1ccc(N2CCN(CC[C@H](O)c3ccccc3)CC2=O)cc1	2.41
CN(C)C(=O)CN1CCCC2(CCN(c3ccc(C#N)cn3)C2)C1 (stereo not drawn)	4.01

I would be grateful if you could provide cytotoxicity at 10 µM for each of the following entries.
1. CCc1cc(O)nc(C2CCCN2C(=O)COC)n1 (stereo not drawn)
2. CN(C)c1ccc(C(=O)N2CCCN(C3CCCCC3)CC2)cn1
3. O=C(CCc1cn[nH]c1)N1CCC(C2CCN(c3ncccn3)CC2)C1 (stereo not drawn)
4. Cc1nn(CC(C)C)c(N(C)C)c1CNCc1ccnn1C
5. COc1cc(OC)c(CNC(=O)NCC(=O)N(C)C)c(OC)c1
6. CC(=O)NCC(=O)N1CCC2(CC1)NC(=O)CC2c1cccnc1 (stereo not drawn)

Out:
-11.5
-6.46
10.2
-22.3
3.27
-72.5

For the 6 molecules below, give their cytotoxicity at 10 µM values.
1. CNC(=O)[C@@H]1C[C@@H](N)CN1c1nc(N2CCCC2)nc(C)c1C
2. COc1c(CNCc2cccc(Cn3cccn3)c2)c(C)nn1C
3. Cc1cnn(C2CCCN(C(=O)CCc3cscn3)C2)c1 (stereo not drawn)
4. CCn1cnnc1CNC(=O)N1CCOC(c2ccc(F)cc2)C1 (stereo not drawn)
5. CCOC(C)c1nc(CNc2cccc(Cl)c2OC)cs1 (stereo not drawn)
6. CN(Cc1ccn[nH]1)Cc1c[nH]nc1-c1ccc(F)cc1

Out:
-7.82
1.33
-12.9
5.53
6.16
-6.41

// for each molecule below, give its cytotoxicity at 10 µM
1. CCCn1cc(Cl)c(C(=O)N2C[C@H]3CC(OC)C[C@H]3C2)n1 (stereo partly drawn)
2. N#Cc1cc(C#N)c(SCC(=O)NCc2ccc(F)cc2)nc1N
3. Cc1cc(NC(=O)C(C)Cn2cncn2)no1 (stereo not drawn)
4. CCc1noc(C2CCCCN2C(=O)c2cccnc2)n1 (stereo not drawn)

Out:
0.19
0.0723
-5.18
8.52

Dear reader, for each entry below, please note its cytotoxicity at 10 µM.
1. CCN1CCN(c2nc3cn(-c4cnn(CC)c4)c(=O)c-3c[nH]2)CC1
2. CC(O)CCN(C)S(=O)(=O)Cc1ccc(Br)cc1 (stereo not drawn)
3. Cc1ncncc1C(=O)N1CCOC(c2nc(C(C)C)n[nH]2)C1 (stereo not drawn)

Out:
1: 4.01; 2: 3.47; 3: -4.98

* * *

Assay: Toxicity liver stage against HepG2, at 10uM
Format: cell-based
Parameters: test concentration 10 uM, cell line HepG2-A16-CD81EGFP
Conditions: human, HepG2-A16-CD81EGFP cells; read-out: INHIBITION
I'd appreciate it if you could supply cytotoxicity at 10 µM values for the items below.
Give bare numbers, in %.

Molecule	Reading
Cc1ccc(C2(O)CCN(Cc3nnc(-c4cccnc4)o3)CC2)nc1	-7.77
CC(C)[C@@H]1CN(C(=O)C2(c3ccccc3)CC2)C[C@H]1C(=O)O	3.61
Cc1cc(CN2CCN(CC3CC3)[C@@H]3CS(=O)(=O)C[C@@H]32)ccc1F	-1.37
O=C(c1cnc2c(c1)CCC2)N1CCCC(CO)(CC2CC2)C1 (stereo not drawn)	-42.1
Cc1ccc(CNC(=O)N2CCOCC2C2CC2)cc1F (stereo not drawn)	10.4

Hi, could you look up cytotoxicity at 10 µM for each item in my list?
1. CN(C)S(=O)(=O)N1CC(c2ccnc(Nc3ccccn3)n2)C1
2. Cc1ccc(CN2CCC3(C2)C(=O)N(CC(N)=O)c2ccccc23)s1 (stereo not drawn)
3. O=C(NCCN1CCc2ccccc21)c1cc(-c2ccc(O)cc2)n[nH]1
4. Cc1cc(C(=O)NC(C)C(=O)Nc2cc(F)ccc2C)nc(C)n1 (stereo not drawn)
5. CNc1ccc(CC2CCCN(C(=O)c3cccc(C)n3)C2)nn1 (stereo not drawn)
6. Cc1cc(SC(C)(C)C)ccc1NCC(=O)NC(N)=O

Out:
[8.84, 5.37, 1.91, -3.71, -12.3, -17.1]

Lab note: each molecule below needs its cytotoxicity at 10 µM filled in.
1. Cc1nc(C)n(CC2CCCN(c3ncnc4sccc34)C2)n1 (stereo not drawn)
2. CCO[C@@H]1CCN(C(=O)c2ccc[nH]2)[C@@H]1Cc1cccnc1
3. Fc1ccc(-c2n[nH]cc2CNCCn2cccn2)cc1

Out:
1. 36.2
2. -80.2
3. 8.1

# map each molecule to its cytotoxicity at 10 µM
1. Cc1ncc(C)c(N2CCCC(CO)(Cc3cccc(Cl)c3)C2)n1 (stereo not drawn)
2. CC(=O)c1cc2ncc(C(=O)NC3CCCCC3)cc2[nH]1
3. CSc1ccc(CN2C[C@@H]3CC[C@@](O)(c4ccc(C)cn4)[C@@H]3C2)cc1
4. CCc1nccn1C1CCCN(C(=O)c2cnn(C)c2C2CC2)C1 (stereo not drawn)
5. CCc1nc(C2CCCN2Cc2cc(C)nc3ccccc23)no1 (stereo not drawn)
6. Cn1nc(C(=O)N2CCOCC2)c2c1CN(CC1CCC1)C2
7. Cc1ccc(C2(O)CCN(C(=O)c3cccc(S(C)(=O)=O)c3)CC2)nc1
8. COCCN1C(=O)CC[C@@H]2[C@@H]1CCN2Cc1c(C)noc1C

Out:
[59.4, 0.0039, -15.7, -12.8, 86, -103, -5.3, 6.57]

In: Fill blank: measured cytotoxicity at 10 µM of the molecule CC(=O)N(Cc1ncc(C(C)C)o1)C1CCN(CCn2cncn2)C1 (stereo not drawn) is ____.
Out: -11.3
